- procedure.details: in vitro
- particulars: African green monkey
Square brackets hold non-standard residues; d marks the D form. Peptide text beside a SMILES is read from it. Nle = CCCC[C@H](N)C(=O)O
quantity.name: viability at 48 h, 0.01 µM (%)
# value in %; strip the unit string

>  <compound>
CCCC[C@@H](C=O)NC(=O)[C@H](CC(C)C)NC(=O)[C@H](CC(C)C)NC(C)=O [MG101] (Ac-Leu-Leu-[Nle]-aldehyde)

>  <experimental.value>
102

$$$$

Query :: Would you mind telling me what viability at 48 h, 0.01 µM value was observed for CCCC[C@@H](C=O)NC(=O)[C@H](CC(C)C)NC(=O)OCc1ccccc1 ?
Result :: 97.9
